Measured thermal shift delta Tm by item
Test system: LOC_OS06G22820-cb001
Sequence (as listed by the source): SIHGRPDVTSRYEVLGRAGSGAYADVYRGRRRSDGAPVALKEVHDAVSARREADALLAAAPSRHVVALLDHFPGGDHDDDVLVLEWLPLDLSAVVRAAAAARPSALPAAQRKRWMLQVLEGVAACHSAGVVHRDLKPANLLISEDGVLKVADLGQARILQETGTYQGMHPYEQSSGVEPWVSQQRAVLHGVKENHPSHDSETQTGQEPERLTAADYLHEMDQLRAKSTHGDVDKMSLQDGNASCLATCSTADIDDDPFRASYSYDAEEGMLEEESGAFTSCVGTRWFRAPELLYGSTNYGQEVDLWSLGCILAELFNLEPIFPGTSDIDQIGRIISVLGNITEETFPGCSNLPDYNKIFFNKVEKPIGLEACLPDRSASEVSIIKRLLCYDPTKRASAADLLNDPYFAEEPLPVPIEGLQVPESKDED
Experiment: thermal shift delta Tm vs DMSO control; higher = stronger stabilization (binding);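 further: purified Escherichia coli-expressed rice kinase domain construct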
Conditions: 12.5 µM; protein concentration 2 µM
Give the quantity in °C, number only.

compound="O=C(O)c1ccc2c(c1)nc(Nc1cccc(Cl)c1)c1ccncc12 [Silmitasertib (CX-4945)]" result_value=0.65
compound="CO[C@H]1C[C@@H]2CC[C@@H](C)[C@@](O)(O2)C(=O)C(=O)N2CCCC[C@H]2C(=O)O[C@H]([C@H](C)C[C@@H]2CC[C@H](n3cnnn3)[C@H](OC)C2)CC(=O)[C@H](C)/C=C(\\C)[C@@H](O)[C@@H](OC)C(=O)[C@H](C)C[C@H](C)/C=C/C=C/C=C/1C [Zotarolimus(ABT-578)]" result_value=0.92
compound=COc1cc(OC)c(/C=C/S(=O)(=O)Cc2ccc(OC)c(NCC(=O)O)c2)c(OC)c1 result_value=0.75
compound=CNC(=O)Nc1ccc(-c2nc(N3CC4CCC(C3)O4)c3cnn(C4CCC5(CC4)OCCO5)c3n2)cc1 result_value=0.61
compound=CONC(=O)c1ccccc1Nc1cc(Nc2cc(C)nn2C(C)C)ncc1Cl result_value=0.47
compound=CN1CCC(COc2cnc(-c3cccc(Cn4nc(-c5cccc(C#N)c5)ccc4=O)c3)nc2)CC1 result_value=0.49
compound="C=C(C)[C@@H]1CC[C@]2(C)CC[C@]3(C)[C@H](CC[C@@H]4[C@@]5(C)CC[C@H](O)C(C)(C)[C@@H]5CC[C@]43C)[C@@H]12 [Lupeol]" result_value=0.12
compound=C[C@@H](NC(=O)c1ncnc(N)c1Cl)c1ncc(C(=O)Nc2cc(C(F)(F)F)c(Cl)cn2)s1 result_value=0.53

Provide thermal shift delta Tm value for the following compound: CC(C)(O)CNc1ncc(-c2ccnc(Nc3ccnc(Cl)c3)n2)c(CC2CC2)n1
0.62

Provide only the value of recorded thermal shift delta Tm for Cc1ccc(CNc2ncnc3ccc(-c4ccc(CO)o4)cc23)o1
0.43

Fill in thermal shift delta Tm for record O=C(NCc1cccc(O)c1)Nc1nc(-c2ccncc2)cs1
0.43

Give the reported thermal shift delta Tm for this compound. Cc1cc2c(F)c(Oc3ncnn4cc(OC[C@@H](C)O)c(C)c34)ccc2[nH]1
0.53

Answer with the recorded thermal shift delta Tm for the compound listed here: C[C@@H]1COC(Nc2ccc3ncnc(Nc4ccc(OCc5nccs5)c(Cl)c4)c3c2)=N1 [Varlitinib]
0.8

====

System: LOC_OS01G60330-cb001
Test: thermal shift delta Tm vs DMSO control; higher = stronger stabilization (binding)
Conditions: 12.5 µM; protein concentration 2 µM
readout_name: thermal shift delta Tm (°C)
Provide the reading as a plain figure in °C.

smiles_repr=CC1(C)C=Cc2c(ccc3c2OC[C@@H](c2ccc(O)cc2O)C3)O1 result_value=2.93
smiles_repr=COc1cc2ncnc(Oc3ccc(CC(=O)Nc4cnn(C(C)C)c4)cc3)c2cc1OC result_value=0.05
smiles_repr=Cc1c(C(=O)Nc2ccc(Oc3ccnc4[nH]cc(-c5ccccc5)c34)c(F)c2)c(=O)n(-c2ccc(F)cc2)n1C result_value=5.65
smiles_repr=CCN(C)S(=O)(=O)Nc1ccc(F)c(C(=O)c2c[nH]c3ncc(-c4cnc(C5CC5)nc4)cc23)c1F result_value=1.8

Tell me its thermal shift delta Tm given Nc1ncnc2c1c(-c1cnc3[nH]ccc3c1)nn2C1CCCC1 as the entry.
1.57

Supply thermal shift delta Tm value. Item: CN1c2ccccc2C(=O)Nc2cnc(Nc3ccc(N4CCC(O)CC4)cc3)nc21
1.06

Given O=C(Nc1c[nH]nc1-c1nc2ccc(CN3CCOCC3)cc2[nH]1)NC1CC1 , respond with its thermal shift delta Tm.
11.9

Supply recorded thermal shift delta Tm for CCNC(=O)Nc1ccc(-c2nc(N3CCOC[C@@H]3C)c3c(n2)C(C)(C)S(=O)(=O)C3)cc1 here.
0.52

# return recorded thermal shift delta Tm for input COc1cc2ncnc(Oc3cccc(NC(=O)Nc4cc(C(C)(C)C(F)(F)F)on4)c3)c2cc1OC
0.64
